The following compounds are listed with their measured viability, T/C values.
tested on: 699152-130-R-J1-PDC complex spheroid growth; experiment: Anticancer human tumor 699152-130-R-J1-PDC patient-derived pancreatic carcinoma cell line growth inhibition [AhR]; details: second compound 0.1 µM; first compound 0.000316 µM; active compounds read low

Consider the reported viability, T/C for these compounds:
{"COMPOUND": "Cn1ncnc1C1c2n[nH]c(=O)c3cc(F)cc(c23)NC1c1ccc(F)cc1 (stereo unspecified) + CC(CO)NC(=O)c1cc(-c2ccc(Cl)cc2)nn(-c2cnn(C)c2)c1=O", "RESULT": "102%"}
{"COMPOUND": "CC[C@@]1(O)C(=O)OCc2c1cc1n(c2=O)Cc2cc3c(CN(C)C)c(O)ccc3nc2-1 + Cc1ccccc1N=Nc1ccc(NC(=O)c2ccnn2C)c(C)c1", "RESULT": "95.9%"}
{"COMPOUND": "CC[C@@]1(O)C(=O)OCc2c1cc1n(c2=O)Cc2cc3c(CN(C)C)c(O)ccc3nc2-1 + Cc1cncc(-c2nc(NCCc3c[nH]c4ccccc34)c3ncn(C(C)C)c3n2)c1", "RESULT": "102%"}

Request: Could you share which viability, T/C value was measured for Cn1ncnc1C1c2n[nH]c(=O)c3cc(F)cc(c23)NC1c1ccc(F)cc1 (stereo unspecified) + Cc1ccccc1N=Nc1ccc(NC(=O)c2ccnn2C)c(C)c1 ?
Response: 83.7%

Request: Could you share which viability, T/C value was measured for Cn1ncnc1C1c2n[nH]c(=O)c3cc(F)cc(c23)NC1c1ccc(F)cc1 (stereo unspecified) + Cc1cncc(-c2nc(NCCc3c[nH]c4ccccc34)c3ncn(C(C)C)c3n2)c1 ?
Response: 95.2%

Request: Could you share which viability, T/C value was measured for CC[C@@]1(O)C(=O)OCc2c1cc1n(c2=O)Cc2cc3c(CN(C)C)c(O)ccc3nc2-1 + CC(CO)NC(=O)c1cc(-c2ccc(Cl)cc2)nn(-c2cnn(C)c2)c1=O ?
Response: 101%

* * *

system: 699152-130-R-J1-PDC complex spheroid growth; assay: Anticancer human tumor 699152-130-R-J1-PDC cell line growth inhibition [AhR]; conditions: second compound 1 µM; first compound 0.0316 µM; active compounds read low;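 also: compound exposure lasted 7 days after spheroids had grown for 3 days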
The following compounds are listed with their measured viability, T/C values.
# unit: % | format: bare number

Consider the reported viability, T/C for these compounds:
{"COMPOUND": "COc1ccc([C@@H](O)c2cc(-c3ncnc4cc(N5CCOCC5)ccc34)c(F)cc2Cl)nn1 + Cc1ccccc1N=Nc1ccc(NC(=O)c2ccnn2C)c(C)c1", "RECORDED NUMBER": 96.8}
{"COMPOUND": "COc1cccc2c1C(=O)c1c(O)c3c(c(O)c1C2=O)CC(O)(C(=O)CO)CC3OC1CC(N)C(O)C(C)O1 (configuration not stated) + Cc1cncc(-c2nc(NCCc3c[nH]c4ccccc34)c3ncn(C(C)C)c3n2)c1", "RECORDED NUMBER": 70.8}
{"COMPOUND": "Nc1ccccc1NC(=O)c1ccc(CNC(=O)OCc2cccnc2)cc1 + Cc1ccccc1N=Nc1ccc(NC(=O)c2ccnn2C)c(C)c1", "RECORDED NUMBER": 97.1}
{"COMPOUND": "Cn1ncnc1C1c2n[nH]c(=O)c3cc(F)cc(c23)NC1c1ccc(F)cc1 (configuration not stated) + Cc1cncc(-c2nc(NCCc3c[nH]c4ccccc34)c3ncn(C(C)C)c3n2)c1", "RECORDED NUMBER": 111}
{"COMPOUND": "Nc1ncn(C2CC(O)C(CO)O2)c(=O)n1 (configuration not stated) + CC(CO)NC(=O)c1cc(-c2ccc(Cl)cc2)nn(-c2cnn(C)c2)c1=O", "RECORDED NUMBER": 107}

Request: Could you share which viability, T/C value was measured for COc1ccc([C@@H](O)c2cc(-c3ncnc4cc(N5CCOCC5)ccc34)c(F)cc2Cl)nn1 + Cc1cncc(-c2nc(NCCc3c[nH]c4ccccc34)c3ncn(C(C)C)c3n2)c1 ?
Response: 104

Request: Could you share which viability, T/C value was measured for COc1cc(C2c3cc4c(cc3C(OC3OC5COC(C)OC5C(O)C3O)C3COC(=O)C23)OCO4)cc(OC)c1O (configuration not stated) + Cc1ccccc1N=Nc1ccc(NC(=O)c2ccnn2C)c(C)c1 ?
Response: 104

* * *

tested on: 699152-130-R-J1-PDC complex spheroid growth; test: Anticancer human tumor 699152-130-R-J1-PDC cell line growth inhibition [AhR]; conditions: second compound 1 µM; first compound 3.16 µM; active compounds read low;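 also: compound exposure lasted 7 days after spheroids had grown for 3 days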
MEASURE NAME: viability, T/C (%)
# unit: % | format: bare number

Request: Could you share which viability, T/C value was measured for COc1cccc2c1C(=O)c1c(O)c3c(c(O)c1C2=O)CC(O)(C(=O)CO)CC3OC1CC(N)C(O)C(C)O1 (configuration not stated) + CC(CO)NC(=O)c1cc(-c2ccc(Cl)cc2)nn(-c2cnn(C)c2)c1=O ?
Response: 2.66

* * *

The following compounds are listed with their measured viability, T/C values.
test system: 699152-130-R-J1-PDC complex spheroid growth; assay: Anticancer human tumor 699152-130-R-J1-PDC cell line growth inhibition [AhR]; conditions: second compound 3.16 µM; first compound 1 µM; active compounds read low;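 also: compound exposure lasted 7 days after spheroids had grown for 3 days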
# unit: % | format: bare number

Consider the reported viability, T/C for these compounds:
{"COMPOUND": "CC(C)c1c(-c2ccccc2)nc2c(C#N)c[nH]n2c1=O + CC(CO)NC(=O)c1cc(-c2ccc(Cl)cc2)nn(-c2cnn(C)c2)c1=O", "viability, T/C [%]": 95.4}
{"COMPOUND": "O=C(C=Cc1cccc(S(=O)(=O)Nc2ccccc2)c1)NO + Cc1cncc(-c2nc(NCCc3c[nH]c4ccccc34)c3ncn(C(C)C)c3n2)c1", "viability, T/C [%]": 86.4}
{"COMPOUND": "NS(=O)(=O)OCC1CC(n2ccc3c(NC4CCc5ccccc54)ncnc32)CC1O (centres undefined) + CC(CO)NC(=O)c1cc(-c2ccc(Cl)cc2)nn(-c2cnn(C)c2)c1=O", "viability, T/C [%]": 31.6}

API: the following record is the query input.
Request: Could you share which viability, T/C value was measured for COc1cc(C2c3cc4c(cc3C(OC3OC5COC(C)OC5C(O)C3O)C3COC(=O)C23)OCO4)cc(OC)c1O (centres undefined) + Cc1ccccc1N=Nc1ccc(NC(=O)c2ccnn2C)c(C)c1 ?
Response: 62.5

* * *

system: 699152-130-R-J1-PDC complex spheroid growth; assay: Anticancer human tumor 699152-130-R-J1-PDC cell line growth inhibition [AhR]; conditions: second compound 1 µM; first compound 3.16 µM; active compounds read low;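 also: compound exposure lasted 7 days after spheroids had grown for 3 days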
MEASURE NAME: viability, T/C (%)
# unit: % | format: bare number

Consider the reported viability, T/C for these compounds:
{"COMPOUND": "NS(=O)(=O)OCC1CC(n2ccc3c(NC4CCc5ccccc54)ncnc32)CC1O (stereo not drawn) + Cc1ccccc1N=Nc1ccc(NC(=O)c2ccnn2C)c(C)c1", "MEASURE NAME": "viability, T/C", "RECORDED NUMBER": 20.2}
{"COMPOUND": "COc1ccc([C@@H](O)c2cc(-c3ncnc4cc(N5CCOCC5)ccc34)c(F)cc2Cl)nn1 + CC(CO)NC(=O)c1cc(-c2ccc(Cl)cc2)nn(-c2cnn(C)c2)c1=O", "MEASURE NAME": "viability, T/C", "RECORDED NUMBER": 56.5}
{"COMPOUND": "COc1cccc2c1C(=O)c1c(O)c3c(c(O)c1C2=O)CC(O)(C(=O)CO)CC3OC1CC(N)C(O)C(C)O1 (stereo not drawn) + Cc1ccccc1N=Nc1ccc(NC(=O)c2ccnn2C)c(C)c1", "MEASURE NAME": "viability, T/C", "RECORDED NUMBER": 4.29}
{"COMPOUND": "Nc1ccccc1NC(=O)c1ccc(CNC(=O)OCc2cccnc2)cc1 + Cc1cncc(-c2nc(NCCc3c[nH]c4ccccc34)c3ncn(C(C)C)c3n2)c1", "MEASURE NAME": "viability, T/C", "RECORDED NUMBER": 72}
{"COMPOUND": "O=C(c1cc(Cc2n[nH]c(=O)c3ccccc23)ccc1F)N1CCN(C(=O)C2CC2)CC1 + CC(CO)NC(=O)c1cc(-c2ccc(Cl)cc2)nn(-c2cnn(C)c2)c1=O", "MEASURE NAME": "viability, T/C", "RECORDED NUMBER": 85.5}

Request: Could you share which viability, T/C value was measured for O=C(C=Cc1cccc(S(=O)(=O)Nc2ccccc2)c1)NO + CC(CO)NC(=O)c1cc(-c2ccc(Cl)cc2)nn(-c2cnn(C)c2)c1=O ?
Response: 94.3

Request: Could you share which viability, T/C value was measured for Nc1ccn(C2OC(CO)C(O)C2(F)F)c(=O)n1 (stereo not drawn) + Cc1ccccc1N=Nc1ccc(NC(=O)c2ccnn2C)c(C)c1 ?
Response: 44.2

Request: Could you share which viability, T/C value was measured for CC1COCCN1c1cc(C2(S(C)(=N)=O)CC2)nc(-c2ccnc3[nH]ccc23)n1 (stereo not drawn) + Cc1ccccc1N=Nc1ccc(NC(=O)c2ccnn2C)c(C)c1 ?
Response: 84.8

Request: Could you share which viability, T/C value was measured for O=C(c1cc(Cc2n[nH]c(=O)c3ccccc23)ccc1F)N1CCN(C(=O)C2CC2)CC1 + Cc1cncc(-c2nc(NCCc3c[nH]c4ccccc34)c3ncn(C(C)C)c3n2)c1 ?
Response: 107

Request: Could you share which viability, T/C value was measured for O=C(C=Cc1cccc(S(=O)(=O)Nc2ccccc2)c1)NO + Cc1ccccc1N=Nc1ccc(NC(=O)c2ccnn2C)c(C)c1 ?
Response: 101

Request: Could you share which viability, T/C value was measured for COc1cc(Nc2ncc3c(n2)-c2ccc(Cl)cc2C(c2c(F)cccc2OC)=NC3)ccc1C(=O)O + CC(CO)NC(=O)c1cc(-c2ccc(Cl)cc2)nn(-c2cnn(C)c2)c1=O ?
Response: 64.1

These data points were gathered from PubChem BioAssay AID1919001.
